Source: patent US4868321A

- Test system: Field Corn
- ASSAY: Postemergence Herbicidal Activity, Field Corn
- Assay type: in vivo
- APPLIED CONDITIONS: Zea mays, post-emergence, 2.0 kg/ha
- Description: The herbicidal data in the following Tables 3 and 4 was obtained in the manner described in PCT published application no. […] In those tables, the test compounds are identified by numbers which correspond to those in Table 1, "kg/ha" is kilograms per hectare, and "% C" is percent control.
Counter-ions that a name gives are not always drawn.
Can you tell me plant injury at 2000 g/ha for the items I'm about to list?
Give bare numbers, in %.

The cases that follow already have their plant injury at 2000 g/ha on record.
[
  {
    "COMPOUND": "CCCn1nnn(-c2cc(NS(=O)(=O)CC)c(Cl)cc2F)c1=O [Compound 51]",
    "plant injury at 2000 g/ha, %": 60
  },
  {
    "COMPOUND": "CCS(=O)(=O)Nc1cc(-n2nnn(C)c2=O)c(F)cc1Cl [Compound 43]",
    "plant injury at 2000 g/ha, %": 30
  },
  {
    "COMPOUND": "CS(=O)(=O)N(c1cc(-n2nnn(CCCF)c2=O)c(Cl)cc1F)S(C)(=O)=O [Compound 36]",
    "plant injury at 2000 g/ha, %": 10
  }
]

Could I get plant injury at 2000 g/ha for every one of these entries?
1. CCS(=O)(=O)N(c1cc(-n2nnn(CCCF)c2=O)c(Cl)cc1F)S(=O)(=O)CC [Compound 37]
2. CCCn1nnn(-c2cc(N(S(=O)(=O)CC)S(=O)(=O)CC)c(Cl)cc2F)c1=O [Compound 49]
3. O=c1n(CCCF)nnn1-c1cc(NS(=O)(=O)C(F)(F)F)c(Cl)cc1F [Compound 32, potassium salt]

[20, 80, 70]
